The values you see were collected from patent US12583855B2.

We begin with a simple list: items and their reported IC50.
System: TT cells
Experiment: TT cell proliferation activity (Cell-Titer Glo)
Format: cell-based
Details: TT human thyroid carcinoma cells, 120 h
Give just the number in nM; leave the unit off.

Cn1cc(-c2cc(-c3ccc(N4CCN(C(=O)C5=CCCC5)CC4)nc3)c3c(C#N)cnn3c2)cn1 | 26.1
Cn1cc(-c2cc(-c3cnc(N4CCN(Cc5ccc(S(C)(=O)=O)cc5)CC4)cn3)c3c(C#N)cnn3c2)cn1 | 47.9
Cn1cc(-c2cc(-c3ccc(N4CC5CC(C4)N5Cc4cccc(S(C)(=O)=O)c4)nc3)c3c(C#N)cnn3c2)cn1 | 6.58

Now look at this entry.
Entry under review: Cn1cc(-c2cc(-c3ccc(N4CC5CC(C4)N5Cc4ccc(S(C)(=O)=O)nc4)nc3)c3c(C#N)cnn3c2)cn1 . Reported IC50?
16.6

---

Consider the following compounds and their measured Tmax readings.
Experiment: Pharmacokinetic data of compounds in male SD rats
Assay type: in vivo
Settings: rat, po, intragastric, 5 mg/kg, suspension MC 0.5%, plasma
Write it as a number; the unit h goes unstated.

COc1ccc(CN2C3CC2CN(c2ccc(-c4cc(N5CC(C)(O)C5)cn5ncc(C#N)c45)cn2)C3)cn1 | 2

What value of measured Tmax is listed for CSc1ccc(CN2C3CC2CN(c2ccc(-c4cc(-c5cnn(C(F)F)c5)cn5ncc(C#N)c45)cn2)C3)cn1 ?
1.5

State the recorded Tmax for this entry: Cn1cc(-c2cc(-c3ccc(N4CCN(Cc5ccc(S(C)(=O)=O)cc5)CC4)nc3)c3c(C#N)cnn3c2)cn1
4

Which Tmax is reported for this compound? CSc1ccc(CN2CCN(c3ccc(-c4cc(-c5cnn(C)c5)cn5ncc(C#N)c45)cn3)CC2)nc1
2.17

---

Reported pIC50 values follow for various compounds
Target: UniProt P07949
Sequence (P07949 658-1114): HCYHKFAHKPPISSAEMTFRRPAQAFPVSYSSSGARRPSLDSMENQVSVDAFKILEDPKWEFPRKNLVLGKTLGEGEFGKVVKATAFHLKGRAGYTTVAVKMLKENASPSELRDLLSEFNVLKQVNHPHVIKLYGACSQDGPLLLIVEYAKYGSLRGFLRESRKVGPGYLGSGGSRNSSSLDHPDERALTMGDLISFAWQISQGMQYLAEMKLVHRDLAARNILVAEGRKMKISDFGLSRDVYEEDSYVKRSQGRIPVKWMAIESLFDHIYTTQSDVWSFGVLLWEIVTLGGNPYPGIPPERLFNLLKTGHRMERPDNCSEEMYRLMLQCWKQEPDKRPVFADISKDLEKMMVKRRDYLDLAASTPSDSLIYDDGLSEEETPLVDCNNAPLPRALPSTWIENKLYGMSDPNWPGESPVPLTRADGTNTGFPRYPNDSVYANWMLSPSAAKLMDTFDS
// pIC50 is dimensionless: -log10 of concentration (M)

Which pIC50 value belongs to COc1ccc(CN2C3CC2CN(c2ccc(-c4cc(N5CC(F)(F)C5)cn5ncc(C#N)c45)cn2)C3)nc1 ?
9.80

Return reported pIC50; argument: CSc1ccc(CN2C3CC2CN(c2ccc(-c4cc(-c5cnn(C(F)F)c5)cn5ncc(C#N)c45)cn2)C3)nc1
9.57

If you can, please state the reported pIC50 value of CSc1cccc(CN2CCN(c3ccc(-c4cc(-c5cnn(C)c5)cn5ncc(C#N)c45)cn3)CC2)n1 .
9.48
